# System: stress induced gastric ulcer
# test summary: Stress ulcer in rats (restraint and water immersion)
# Assay type: in vivo, Wistar rats, male
# condition parameters: 100 mg/kg, oral, an hour before the restraint
The reader will find reported Inhibition (%) values listed item by item below.
value type: Inhibition (%)

[
  {
    "compound": "c1ccc2c(c1)Sc1ccccc1N2CCC12CCCN1CCC2",
    "observed result": 87.0
  },
  {
    "compound": "c1ccc2c(c1)Sc1ccccc1N2CC12CCCN1CCC2",
    "observed result": 92.5
  },
  {
    "compound": "CN1CCN(CC(=O)N2c3ccccc3C(=O)Nc3cccnc32)CC1 [Pirenzepine, reference compound]",
    "observed result": 98.8
  },
  {
    "compound": "O=C1Nc2cccnc2N(C(=O)C23CCCN2CCC3)c2ccccc21",
    "observed result": 80.2
  },
  {
    "compound": "CN/C(=N/CCSCc1nc[nH]c1C)NC#N [Cimetidine, reference compound]",
    "observed result": 81.5
  },
  {
    "compound": "CN(C)S(=O)(=O)c1ccc2c(c1)N(CC13CCCN1CCC3)c1ccccc1S2",
    "observed result": 65.6
  }
]
